- measurementNotes: yeast display, Sf9 membrane polyspecificity reagent, FACS + sequencing; frameworks hold sequencing errors
endpoint: polyreactivity (PSR sort gate)

Example sequences with recorded polyreactivity (PSR sort gate):
sequencerecord=QVQLVESGGGLVQAGGSLRLSCAASGYIFYANAMGWYRQPPGKERELVAAISWSGGSTYYADSVKGRFTISRDNAKNTVYLQMNSLKPEDTAVYYCAAAYYETPWDYYYWGQGTQVTVSS endpoint="polyreactivity (PSR sort gate)" result="low polyreactivity"
sequencerecord=QDQLVYSGGGLVQAGGSLSISCASSVSTFGGYAMGWYRQAPGKERELVSAITWSAGSTYADSVKGRFTISRDNAKNTVYLQMTSLKPEDTAVYYCAAYPYVGYVSLSAYDYWGQGTQVTVSS endpoint="polyreactivity (PSR sort gate)" result="low polyreactivity"
sequencerecord=QVQLVESGGGLVQAGGSLRLSCAASGRIFTAYAMGWYRQAPGKERELVAAISSGDSTYYADSVKGRFTISRDNAKNTVYLQMNSLKPEDTAVYYCATGVYPDFEYDSWGQGTQVTVSS endpoint="polyreactivity (PSR sort gate)" result="low polyreactivity"
sequencerecord=QVQLVESGGGLVQAGGSLRLSCAASGSIFDRNAMGRYRQAPGKERELVAAITSGGSTYYADSVKGRFTISRDNAKNTVYFQMNSLKPEDTAVYYCNADTDPPVPLYYWGQGTQVNVSS endpoint="polyreactivity (PSR sort gate)" result="low polyreactivity"
sequencerecord=QVQLVESGGGIVQAGGSLRLSCAASGRIFVRNAMVWYRQAPGKERELVAAISTNGGSTRYADSVKGRFTISRDNAKNTVYLQMNSLKPEDTAVYYCNAYYSHSPRYLKYDYWGLGTQVTVSS endpoint="polyreactivity (PSR sort gate)" result="high polyreactivity"
sequencerecord=QVQLVESGGGIVQAGGSLRLSCAASGNTFGYYAIGWYRQAPGKERELVAAINFGGDTSYADSVKGRFTISRDNAKNTVYLQMNSLKPEDTAVYYCNRVPSWRIDYDYWGQGTQVTVSS endpoint="polyreactivity (PSR sort gate)" result="low polyreactivity"
sequencerecord=QVQHVESGRGLVQAGGSLRLICAASGRTFGRNAMGWYRQAPGQERELVAAITSGGSTSYADSVKGRFTISRDNAKNPVYLQMNSLKPEDTAVYYCRQFSVWGYDYWGQGTQLTVSS endpoint="polyreactivity (PSR sort gate)" result="high polyreactivity"
sequencerecord=QVQLVESGGGLVQAGGSLRLSCAASGRIFSTYVMGWYRQAPGKERELVAAIRNRGGSTYYADSVKGRFTISRDNAKNTVYLQMNSLKPEDTAVFYCAAEYSYRYRVSMDYWGQGTQVTVSS endpoint="polyreactivity (PSR sort gate)" result="high polyreactivity"

Kindly give each listed record's polyreactivity (PSR sort gate).
1. QVQLVESGGGLVQAGGSLRLICAASGSTFVFYAMGWYRQAPGKERELYATISTGGSTYADSVKGRFTISRDNSKNTVYLQMNSLIPEDTAVYYCNARLRSFTLSDAEYEYWGQGTQETVSS
2. QVQLVESGGGLVHAGGSLRLSCAASGFTFAQNAMGWYRQATGKEREWVAAITRSGARTYYADSVKGRFTISRDNAKNTVYLLMNSLKPEDTPVYYCNRDASRKYGYWGQGTQVTVSS
3. QVQRVESGGGLVQAGGSLRLSCAASGFIFTSNARGWYRPAPGKERELVAASTKSGGSTYYADSVKGRFTISRDNAKNTVYLQMNSLKPEDTAVYYCAAYPTSRYKYEYWGQGTQVTVSS

Response given:
1. low polyreactivity
2. high polyreactivity
3. high polyreactivity
